Tested on: FcγIII
Test: Inhibition of FcR binding, reverse ELISA with PAP immune complexes
Conditions: PAP pre-incubated with peptide one hour, one hour on FcγR coated plates; lower OD = more inhibition; positive control 1.588
Experimental: For this reason, a “reverse ELISA” technique was used to assess binding of the Fc region to ligands that bind to immune complexed IgG Fc. In a reverse ELISA, the enzyme (e.g., HRP) is not covalently conjugated to the Fc portion of the secondary antibody. […] Falcon microtiter plates were coated with 1:10 dilutions of highly purified FcγIIa, FcγIIb and FcγIII and incubated for 24 hours. […] After washing, plates were incubated with ABTS substrate for 15 minutes and read at 405 nm.
Each entry below carries its recorded FcγIII (read at 405 nm).
measuredQuantity: FcγIII (read at 405 nm)

• APPCAFHLGELVWCT = 0.880
• APPCAWHLGELVWCT = 0.530
• DCAFHLGELVWCT = 0.810
• APPDCAWHLGELVWCT = 0.670
